TARGET ENTITY: Full-length glucokinase (beta cell isoform) (Homo sapiens, UniProt P35557)
Construct: Full-length glucokinase (beta cell isoform) was His-tagged at N-terminus; His tag (N)
Sequence (P35557 whole entry, canonical isoform): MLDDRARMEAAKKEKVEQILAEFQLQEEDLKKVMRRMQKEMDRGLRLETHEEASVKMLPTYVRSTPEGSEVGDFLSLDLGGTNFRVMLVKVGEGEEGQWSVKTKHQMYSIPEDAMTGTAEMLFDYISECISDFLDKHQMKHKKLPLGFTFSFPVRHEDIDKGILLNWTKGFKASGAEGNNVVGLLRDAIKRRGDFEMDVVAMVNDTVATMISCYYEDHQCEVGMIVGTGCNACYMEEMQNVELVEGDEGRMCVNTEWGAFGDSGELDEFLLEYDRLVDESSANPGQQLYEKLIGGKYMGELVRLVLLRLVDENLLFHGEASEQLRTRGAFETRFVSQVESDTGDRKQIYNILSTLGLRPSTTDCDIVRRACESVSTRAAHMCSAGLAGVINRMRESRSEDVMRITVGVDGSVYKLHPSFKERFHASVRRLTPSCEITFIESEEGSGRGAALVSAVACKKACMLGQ
TEST: Glucokinase activation assay (PK/LDH-coupled, NADH depletion at 340 nm)
ASSAY CONTEXT: 5 mM glucose, 2.5 mM ATP, pH 7.1, room temperature; values given as a range where N>1
pEC50: −log10 of the molar value. Counter-ions that a name gives are not always drawn.
ASSAY METRIC: pEC50

                                   compound  comparison_symbol  measured_value
0  Cn1ccc(NC(=O)[C@H](CC2CCOCC2)n2cc(C(F)(F)F)ccc2=O)n1                  =            4.27
1  Cc1cnc(NC(=O)[C@H](CC2CCCC2)n2cnc(C(F)(F)F)cc2=O)cn1                  =            4.69
2  Cc1ccc(NC(=O)[C@H](CC2CCOCC2)n2ccc(C(F)(F)F)cc2=O)nc1                  <            4.00
3  O=C(O)Cc1cnc(NC(=O)[C@H](CC2CCCC2)n2cc(C(F)(F)F)ccc2=O)s1 [Example 26, mono acetic acid salt]                  =            4.95
4  O=C(Nc1ccccn1)[C@H](CC1CCCC1)n1cc(C(F)(F)F)ccc1=O                  =            6.52
5  O=C(Nc1ccncn1)[C@H](CC1CCCC1)n1ccc(C(F)(F)F)cc1=O                  =            5.24
6  Cc1cnc(NC(=O)[C@H](CC2CCOCC2)n2ccc(C(F)(F)F)cc2=O)cn1                  <            4.00
